Tested On: CTLA-4 (Homo sapiens)
Sequence (P16410 36-223): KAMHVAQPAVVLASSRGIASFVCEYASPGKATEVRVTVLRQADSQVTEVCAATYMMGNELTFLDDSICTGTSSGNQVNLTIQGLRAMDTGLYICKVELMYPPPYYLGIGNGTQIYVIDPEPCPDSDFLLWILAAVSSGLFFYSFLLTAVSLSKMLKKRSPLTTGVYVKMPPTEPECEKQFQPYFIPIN
Assay Protocol: ELISA binding of clones after Affinity Maturation with random library (Tables 10, 11)
Condition Info: CTLA-4 binding ELISA of clones after Affinity Maturation from random (NNS) library; signal/noise ratio; clones of 4th or 5th round
Reported Property: ELISA S/N(SA)

C4m#19-5th2w-NNS6-55 (GGCMHPYLPIKSVHFCPL; C4m#19-5th2w-NNS6-55) ... 28.3
C4m#19-5th4w-NN6-7 (GGCRHPFLPIWSWHFCPF; C4m#19-5th4w-NN6-7) ... 23.0

(I) C4m#19-5th4w-NN6-51 (GGCWHPYLPIVSWHFCSR; C4m#19-5th4w-NN6-51)
(II) C4m#19-5th2w-NNS6-68 (GGCLHPWLPIVSCHFCPR; C4m#19-5th2w-NNS6-68)
(III) C4m#19-5th2w-NNS6-37 (GGCIHPFLPIWSIHFCSR; C4m#19-5th2w-NNS6-37)
Rank ascending by ELISA S/N(SA). Reply with the labels, ordered as the question asks.
II, III, I
(II: 4.6, III: 9.4, I: 22.1)
